# Tested on: P. aeruginosa elastase
# Construct: purchased Elastin Products Company
# assay_notes: Enzymatic digestion with P. aeruginosa elastase, RP-HPLC
# Type: in vitro ADME
# measurement_context: isolated enzyme elastase; peptide 1 mg/mL in 10 mM Tris-HCl pH 7.5, 20 U P. aeruginosa elastase, 37 °C, 30 min, RP-HPLC C18 peak integration; read-out: % of full-length peptide
No end group written: not given here.
property_name: remaining at 0.5 h, 1 mg/mL

Q) Requested read-out remaining at 0.5 h, 1 mg/mL, target or system P. aeruginosa elastase, entry RWKIFKKIEKMGRNIRDGIVKAGPAIQVLGSAKAI-NH2 [L-Q53 CecB]
A) ~0.2%
